Experiment: H1N1 influenza NS1A inhibitors, functional cell based assay (AID 504329)
Settings: percent inhibition, at 12.5 µM, stronger effect = higher value
About 1,000 (0.29%) of roughly 340,000 compounds were called active. The list is a sample of the results. Entries with a potency or affinity are not part of this list.
Known inhibition of a selection of molecules
Output spec: scalar in %, unitless text.

Sample answers from the record:
1. COc1ccccc1N/C=C(\C#N)c1nc2ccccc2[nH]1	10.7
2. COc1ccc(C(=O)N2CCN(c3ncccn3)CC2)cc1[N+](=O)[O-]	-14.3
3. Oc1ccccc1N=N/C(=N/Nc1ccccc1O)c1ccccc1	-1.57
4. N=c1n(CCN2CCOCC2)c2ccccc2n1CC(=O)c1cccc([N+](=O)[O-])c1	0.36
5. COc1ccc(C(C)=O)cc1CN(c1ccccc1OC)S(=O)(=O)c1cccs1	13.1

Query string: Reported inhibition for O=C(Nc1ccc2c(c1)C(=O)c1ccccc1-2)c1ccccc1 : what is it?
Result string: -5.09

Query string: Find the recorded inhibition belonging to Cc1ccc(S(=O)(=O)N2CCOCC2)cc1NC(=O)C1=NN(c2ccccc2)C(=O)CC1 and report it.
Result string: -4.05

Query string: Can you share its inhibition? I mean this molecule: O=C(N/N=C/c1cccc([N+](=O)[O-])c1O)C(O)(c1ccccc1)c1ccccc1
Result string: -8.83

Query string: Return reported inhibition; argument: Oc1ccccc1-c1nc(NC2CCCC2)c2ccccc2n1
Result string: -9.82

Query string: Reported inhibition, molecule Cc1nn(-c2ccccc2)c(N2CCCC2)c1/C=N/NC(=O)c1ccccc1O : ____
Result string: -10.1

Query string: // returns reported inhibition for input COc1ccc(C(=O)Nc2nc(-c3ccccn3)cs2)cc1S(=O)(=O)N1CCOCC1
Result string: -8.69

====

Experiment: H1N1 influenza NS1A inhibitors, functional cell based assay (AID 504329)
Details: percent inhibition, at 12.5 µM, stronger effect = higher value
Out of some 340,000 compounds screened, about 1,000 (0.29%) were called active. Not all results are given here. Measured potencies and affinities stand elsewhere.
quantity kind: inhibition (%)
Write the answer as a number in %, unit excluded.

Reference set (4 entries):
1) C=CCSC(=S)Nc1c(C)n(C)n(-c2ccccc2)c1=O	-2.87
2) Cc1c(C=C2C(=O)NC(=O)NC2=O)c(=O)n(-c2ccccc2)n1C	-5.56
3) O=c1cnnc(N/N=C/c2ccccn2)[nH]1	20.5
4) Cc1ccccc1Nc1ccc(S(=O)(=O)N2CCOCC2)cc1[N+](=O)[O-]	12.2

# next compound below
Query string: Any idea what its inhibition is? The compound is Cc1ccc(S(=O)(=O)c2nc(N3CCOCC3)sc2Cl)cc1
Result string: -3.55

====

Test: H1N1 influenza NS1A inhibitors, functional cell based assay (AID 504329)
Conditions: percent inhibition, at 12.5 µM, stronger effect = higher value
About 1,000 (0.29%) of roughly 340,000 compounds were called active. Not all results are given here. Potency and affinity values are given separately.
quantity kind: inhibition (%)
Response body: numeric value in %, unit text excluded.

Consider the worked cases shown below.
1) O=C(/C=C/c1ccc(Cl)cc1)NCCCN1CCOCC1	-7.22
2) COc1ccc(C(CCNCc2ccc(N(C)C)cc2)c2ccccc2)cc1 (stereo not given)	25.2
3) Cc1nc(-c2ccc(Cl)cc2)sc1C(=O)O	-5.39

Query string: Fill in: inhibition of CC1(C)Cc2c(cnn2-c2ccccc2)C(NC(=O)CCCn2cncn2)C1 (stereo not given) is ___
Result string: 4.41

Query string: Which inhibition is listed for O=C(CCNC(=O)c1ccc([N+](=O)[O-])cc1)Nc1nc2ccccc2[nH]1 ?
Result string: -0.35

Query string: So what does the record say about inhibition for Cc1cccc(N2CCN(C(=O)CCn3c(=O)[nH]c4ccsc4c3=O)CC2C)c1 (stereo not given) ?
Result string: 14.2

Query string: Please report the recorded inhibition for CN(N=Nc1ccc([N+](=O)[O-])cc1)c1ccccc1 .
Result string: 8.69
